Where these numbers come from: patent EP4640240A1

method_notes: Biodistribution studies in BALB/c mice
Assay type: in vivo
recorded_conditions: female, mouse, iv, total radioactivity; Intestine, 60 min p.i., healthy BALB/c mice, 0.1 nmol i.v.; read-out: Biodistribution data, Intestine
endpoint_label: tissue uptake at 1 h

Data request: Indicate the recorded tissue uptake at 1 h value for this molecule: NC(=O)CNC(=O)CNC(=O)[C@H](CCCCNC(=O)CCCCc1cn(C2O[C@H](CO)[C@H](O)[C@H](O)[C@H]2O)nn1)NC(=O)CNC(=O)CNC(=O)[C@H](CCCCNC(=O)CCCCc1cn(C2O[C@H](CO)[C@H](O)[C@H](O)[C@H]2O)nn1)NC(=O)CNC(=O)CNC(=O)[C@H](CCCCNC(=O)CCCCc1cn(C2O[C@H](CO)[C@H](O)[C@H](O)[C@H]2O)nn1)NC(=O)CCCNC(=O)CC[C@H](C(=O)O)N1CCN(CC(=O)O)CCN(CC(=O)O)CC1 (stereo partly shown) [[68Ga]Ga-TriLysan, metal not drawn]
Data returned: 1.04 %ID/g
